# measured-target: T1, 4H2642-AA
# T1 chain: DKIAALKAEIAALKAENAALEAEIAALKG
# method-summary: two-hybrid library CCmax;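 also: natural log of median RNA to DNA barcode read ratio; higher means stronger binding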
# measurement-parameters: mean of both orientations
Measured interaction score, listed per entry for reference.
Lab note: record the figure alone, no unit after it.

Prompt: Please look up its interaction score: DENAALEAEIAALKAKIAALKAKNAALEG [4H1135-AA]
Completion: -1.3

Prompt: Request: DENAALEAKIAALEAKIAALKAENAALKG [4H1324-AA]
Completion: -0.934

Prompt: Request: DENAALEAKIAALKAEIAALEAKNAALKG [4H1352-AA]
Completion: -1.13

Prompt: Request: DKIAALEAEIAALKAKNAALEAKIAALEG [4H2165-AA]
Completion: 0.223

Prompt: Request: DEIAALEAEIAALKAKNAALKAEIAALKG [4H122-AA]
Completion: 1.83

Prompt: Request: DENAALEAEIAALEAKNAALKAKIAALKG [4H1086-AA]
Completion: 1.79

Prompt: Request: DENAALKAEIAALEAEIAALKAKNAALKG [4H1552-AA]
Completion: 0.755
